# TARGET OR TEST SYSTEM: human C5aR(CD88) (Homo sapiens)
# Construct: expressed in transfected cells; host or cells: rat basophilic leukemia cells (RBL)
# ASSAY: Determination of the IC50 value in an enzyme release assay (functional assay, antagonistic activity)
# Assay type: cell-based
# CONDITION PARAMETERS: antagonistic activity; IC50 group in enzyme release assay, RBL cells expressing human C5aR(CD88); read-out: activity (group)
Positions of bridges follow the written chain, without caps; N, C: chain ends. Non-standard residues stand in square brackets, D forms with d. Residues, ends and D or L forms follow the SMILES beside them. Phe(3-Cl) = N[C@@H](Cc1cccc(Cl)c1)C(=O)O; Phe(4-F) = N[C@@H](Cc1ccc(F)cc1)C(=O)O; dPhe(2-Me) = Cc1ccccc1C[C@@H](N)C(=O)O; d(hLeu) = CC(C)CC[C@@H](N)C(=O)O; dCha = N[C@H](CC1CCCCC1)C(=O)O; Nle = CCCC[C@H](N)C(=O)O; Orn = NCCC[C@H](N)C(=O)O
The following compounds are listed with their measured IC50 values.

Ask: Given the entry CCCC[C@@H]1NC(=O)[C@H](Cc2c[nH]c3ccccc23)NC(=O)[C@@H](Cc2ccccc2C)NC(=O)[C@@H]2CCCN2C(=O)[C@@H](NC(=O)[C@H](Cc2ccccc2)NC(C)=O)CCCNC1=O [Compound 147, Ac-Phe-[Orn-Pro-omf-Trp-Nle]] (Ac-F[Orn]P[dPhe(2-Me)]W[Nle]; lactam 2-C) , what IC50 was observed with human C5aR(CD88) (Homo sapiens)?
Reply: 10 to 20 nM

Ask: Given the entry CC(=O)N[C@@H](Cc1ccccc1)C(=O)N[C@@H](CCCN)C(=O)N1CCC[C@H]1C(=O)N[C@H](CCC(C)C)C(=O)N[C@@H](Cc1cccc(Cl)c1)C(=O)N[C@@H](Cc1ccc(F)cc1)C(N)=O [Compound 290, Ac-Phe-Orn-Pro-hle-Mcf-Pff-NH2] (Ac-F[Orn]P[d(hLeu)][Phe(3-Cl)][Phe(4-F)]-NH2) , what IC50 was observed with human C5aR(CD88) (Homo sapiens)?
Reply: 50 to 200 nM

Ask: Given the entry CCCC[C@@H]1NC(=O)[C@H](Cc2c[nH]c3ccccc23)NC(=O)[C@@H](CC2CCCCC2)NC(=O)[C@@H]2CCCN2C(=O)[C@@H](NC(=O)[C@@H](N)Cc2ccccc2)CCCNC1=O [Compound 376, H-Phe-[Orn-Pro-cha-Trp-Nle]] (H-F[Orn]P[dCha]W[Nle]; lactam 2-C) , what IC50 was observed with human C5aR(CD88) (Homo sapiens)?
Reply: 50 to 200 nM

====

# TARGET OR TEST SYSTEM: human C5aR(CD88) (Homo sapiens, UniProt P21730)
# Construct: expressed in transfected cells; host or cells: rat basophilic leukemia cells (RBL)
# Sequence (P21730 1-350): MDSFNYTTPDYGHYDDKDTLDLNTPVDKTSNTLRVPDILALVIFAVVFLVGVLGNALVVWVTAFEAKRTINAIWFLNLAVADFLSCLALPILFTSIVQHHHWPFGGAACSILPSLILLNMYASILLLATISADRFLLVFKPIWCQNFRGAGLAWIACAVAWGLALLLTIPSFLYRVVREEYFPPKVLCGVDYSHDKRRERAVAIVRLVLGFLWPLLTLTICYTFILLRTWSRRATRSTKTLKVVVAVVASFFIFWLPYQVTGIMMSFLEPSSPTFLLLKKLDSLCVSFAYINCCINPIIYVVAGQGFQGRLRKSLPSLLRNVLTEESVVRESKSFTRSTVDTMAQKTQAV
# ASSAY: Determination of the IC50 value in an enzyme release assay (functional assay, antagonistic activity)
# Assay type: cell-based
# CONDITION PARAMETERS: antagonistic activity; IC50 group in enzyme release assay, RBL cells expressing human C5aR(CD88); read-out: activity (group)
pIC50: −log10 of the molar value. Non-standard residues stand in square brackets, D forms with d. Residues, ends and D or L forms follow the SMILES beside them. 2Nal = N[C@@H](Cc1ccc2ccccc2c1)C(=O)O; dCha = N[C@H](CC1CCCCC1)C(=O)O; Orn = NCCC[C@H](N)C(=O)O
The following molecules are listed with their measured pIC50 values.

Ask: If you can, please state the reported pIC50 value of CC(=O)N[C@@H](Cc1ccccc1)C(=O)N[C@@H](CCCN)C(=O)N1CCC[C@H]1C(=O)N[C@H](CC1CCCCC1)C(=O)N[C@@H](Cc1c[nH]c2ccccc12)C(=O)N[C@@H](Cc1ccc2ccccc2c1)C(N)=O [Compound 64, Ac-Phe-Orn-Pro-cha-Trp-2Ni—NH2] (Ac-F[Orn]P[dCha]W[2Nal]-NH2) .
Reply: 7.30 to 7.70

Ask: If you can, please state the reported pIC50 value of CC(=O)N[C@@H](Cc1ccccc1)C(=O)N[C@@H](CO)C(=O)N1CCC[C@H]1C(=O)N[C@H](CC1CCCCC1)C(=O)N[C@@H](Cc1c[nH]c2ccccc12)C(=O)N[C@@H](Cc1ccccc1)C(N)=O [Compound 90, Ac-Phe-Ser-Pro-cha-Trp-Phe-NH2] (Ac-FSP[dCha]WF-NH2) .
Reply: 5.70 to 6.70
